Quick list: Binding Assay (ELISA signal) per entry.
# system-under-test: T1, CD38 (human, UniProt P28907 43-300, limits assumed)
# T1 construct: also called cluster of differentiation 38; cyclic ADP ribose hydrolase
# experiment-notes: ELISA; larger values represent binding
Where no end group is shown, it is not given here. [ ]: non-standard residue; d: D form. Bip = N[C@@H](Cc1ccc(-c2ccccc2)cc1)C(=O)O; NMeF = CN[C@@H](Cc1ccccc1)C(=O)O
Reply with the value as a number alone.

Input ALH[NMeF]VLP[Bip]VAVC (not fully specified (N-terminus, bridges); printed as A L H MeF V L P Bph V A V C, Alanine variant at position 10) [A L H MeF V L P Bph V A V C] . Output Binding Assay (ELISA signal): 0.1

Input ALH[NMeF]VLPAVWVC (not fully specified; printed as A L H MeF V L P A V W V C, Alanine variant at position 8) [A L H MeF V L P A V W V C] . Output Binding Assay (ELISA signal): 0.09

Input ALA[NMeF]VLP[Bip]VWVC (not fully specified (N-terminus, bridges); printed as A L A MeF V L P Bph V W V C, Alanine variant at position 3) [A L A MeF V L P Bph V W V C] . Output Binding Assay (ELISA signal): 0.37

Input ALHAVLP[Bip]VWVC (not fully specified (N-terminus, bridges); printed as A L H A V L P Bph V W V C, Alanine variant at position 4) [A L H A V L P Bph V W V C] . Output Binding Assay (ELISA signal): 0.1
